# TEST TARGET: SARS-CoV-2 spike S1 RBD / ACE2 interaction (S-RBD protein binding to ACE2) (Severe acute respiratory syndrome coronavirus 2)
# EXPERIMENT NOTES: biochemical
EXPERIMENTAL ENDPOINT: IC50
Field note: include the unit after the figure.

Challenge: Look up IC50: N=C(N)c1ccc(/N=N/Nc2ccc(C(=N)N)cc2)cc1 [DIZE]
Response given: 20.6 µM
